The reported numbers originate from patent US20220330549A1.

Test system: Humulus scandens
Assay: Herbicidal activity test for indoor pre-emergence soil treatment
Assay type: in vivo
Conditions: 150 g a.i./ha, visual inspection 21 days after treatment
Herbicidal Activity Humulus scandens listing for selected molecules.
reportedProperty: Herbicidal Activity Humulus scandens

> print(dat)
                                   molecule  assayresult
1  Cc1cccc(C(=O)NCc2cc(F)cc(Cl)c2)n1 [Compound B27]            1
2  COc1ccc(OC)c(C(=O)NCc2cc(F)cc(F)c2)c1 [Compound A24]            1

---

System: Humulus scandens
Assay: Herbicidal activity test for indoor post-emergence spraying on stems and leaves
Format: in vivo
Design: key: grade level by weed remaining vs blank control, e.g. 5 = 10.1-15%
Conditions: 150 g a.i./ha, visual inspection 21 days after treatment
Herbicidal Activity Humulus scandens listing for selected compounds.
reportedProperty: Herbicidal Activity Humulus scandens

> print(dat)
                            cpdsmiles  assayresult
1  COc1ccc(OC)c(C(=O)NCc2cccc(C)c2)c1            1
2    COc1ccccc1C(=O)NCc1cc(F)cc(Cl)c1            1
3  COc1ccc(OC)c(C(=O)NCc2cccc(F)c2)c1            1
4       COc1cccc(CNC(=O)c2cccnc2OC)c1            1
5    COc1ncccc1C(=O)NCc1cc(F)cc(Cl)c1            1

---

Herbicidal activity 15 days after treatment Gramineae listing for selected compounds.
Tested on: Gramineae
Assay: Post-emergence herbicidal activity test in a paddy field
Assay type: in vivo
Set-up: key: level scale; higher level = more weed left vs blank control
Settings: 150 g a.i./ha (penoxsulam control 250 g(a.i.)/h), 15 days after treatment
reportedProperty: Herbicidal activity 15 days after treatment Gramineae

> print(dat)
                                   compound  assayresult
1  Cc1cccc(C(=O)NCc2ccc(F)c(Cl)c2)n1 [Compound B30]            1
2  COc1ccc(OC)c(C(=O)NCc2cccc(F)c2)c1 [Compound A22]            1
3  Cc1cccc(C(=O)NCc2cc(F)cc(Cl)c2)n1 [Compound B27]            1

---

Test system: Digitaria sanguinalis
Assay: Field test for weed control in a corn field
Format: in vivo
Conditions: 150 g a.i./ha, after treatment
Post-emergence weed control effect, Digitaria sanguinalis listing for selected compounds.
reportedProperty: Post-emergence weed control effect, Digitaria sanguinalis

> print(dat)
                                   compound  assayresult
1  Cc1cccc(CNC(=O)c2cccc(C)c2)c1 [Compound B14, 3-methyl-N-(3-methylbenzyl)benzamide]            1
2  Cc1cccc(C(=O)NCc2ccc(F)c(Cl)c2)n1 [Compound B30]            1
3  Cc1cccc(C(=O)NCc2cc(F)cc(Cl)c2)n1 [Compound B27]            1

---

Test system: Humulus scandens
Assay: Herbicidal activity test for indoor post-emergence spraying on stems and leaves
Type: in vivo
Set-up: key: grade level by weed remaining vs blank control, e.g. 5 = 10.1-15%
Settings: 150 g a.i./ha, visual inspection 21 days after treatment
Herbicidal Activity Humulus scandens listing for selected molecules.
reportedProperty: Herbicidal Activity Humulus scandens

> print(dat)
                                    molecule  assayresult
 1  COc1ccccc1C(=O)NCc1cccc(Cl)c1 [Compound A09, N-(3-chlorobenzyl)-2-methoxybenzamide]            1
 2  Cc1cccc(CNC(=O)c2cccc(C)c2)c1 [Compound B14, 3-methyl-N-(3-methylbenzyl)benzamide]            1
 3  Cc1cccc(C(=O)NCc2cc(Cl)cc(Cl)c2)c1 [Compound B08]            1
 4  Cc1cccc(C(=O)NCc2cccc(F)c2)c1 [Compound B01]            1
 5  COc1ncccc1C(=O)NCc1cccc(Cl)c1 [Compound A91]            1
 6  Cc1cccc(C(=O)NCc2ccc(F)cc2)c1 [Compound B02]            1
 7  COc1ncccc1C(=O)NCc1cccc(C)c1 [Compound A85]            1
 8  COc1ccc(OC)c(C(=O)NCc2cc(F)cc(F)c2)c1 [Compound A24]            1
 9  COc1ccc(OC)c(C(=O)NCc2cc(Cl)cc(Cl)c2)c1 [Compound A29]            1
10  COc1ncccc1C(=O)NCc1ccc(F)cc1 [Compound A94]            1
11  Cc1cccc(C(=O)NCc2cc(F)cc(Cl)c2)c1 [Compound B07]            1
12  CS(=O)(=O)c1ccc(C(=O)C2C(=O)CCCC2=O)c([N+](=O)[O-])c1 [Mesotrione, reference compound]            1
13  Cc1cccc(C(=O)NCc2cccc(F)c2)n1 [Compound B22]            1
14  Cc1cccc(C(=O)NCc2ccc(F)c(Cl)c2)n1 [Compound B30]            1
15  COc1ccc(OC)c(C(=O)NCc2ccc(F)cc2)c1 [Compound A23]            1
16  COc1ccccc1C(=O)NCc1cccc(F)c1 [Compound A01]            1
17  COc1ccc(OC)c(C(=O)NCc2cc(F)cc(Cl)c2)c1 [Compound A28]            1
18  COc1ccccc1C(=O)NCc1cccc(C)c1 [Compound A14, 2-methoxy-N-(3-methylbenzyl)benzamide]            1
19  COc1ccccc1C(=O)NCc1cc(F)cc(F)c1 [Compound A03]            1
